Each recorded value in this set is attributed to PubChem BioAssay AID1845203.

Reported viability, T/C values follow for various compounds
# Tested on: G-401 tumor spheroids, viability % test/control
# Assay notes: Anticancer human tumor G-401 cell line growth inhibition;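 further: spheroids exposed to compound for 7 days; 100% = DMSO vehicle-treated spheroids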
# Run parameters: second compound 94.9 pM; first compound 3 µM; active compounds read low; spheroids with HUVEC and MSC
The reply should be a number in %, with the unit left off.

Cc1sc2c(c1C)C(c1ccc(Cl)cc1)=NC(CC(=O)Nc1ccc(O)cc1)c1nnc(C)n1-2 (centres undefined) + COc1cc2c(cc1O)CCNC21CSC2c3c(OC(C)=O)c(C)c4c(c3C(COC1=O)N1C(O)C3Cc5cc(C)c(OC)c(O)c5C(C21)N3C)OCO4
5.01
O=C(c1cc(Cc2n[nH]c(=O)c3ccccc23)ccc1F)N1CCN(C(=O)C2CC2)CC1 + COc1cc2c(cc1O)CCNC21CSC2c3c(OC(C)=O)c(C)c4c(c3C(COC1=O)N1C(O)C3Cc5cc(C)c(OC)c(O)c5C(C21)N3C)OCO4
71.5
CNCc1ccc(-c2cc(-c3nc(-c4ccc(S(=O)(=O)C(C)C)cc4)cnc3N)on2)cc1 + COc1cc2c(cc1O)CCNC21CSC2c3c(OC(C)=O)c(C)c4c(c3C(COC1=O)N1C(O)C3Cc5cc(C)c(OC)c(O)c5C(C21)N3C)OCO4
25.8

Consider Cn1ncnc1[C@H]1c2n[nH]c(=O)c3cc(F)cc(c23)N[C@@H]1c1ccc(F)cc1 + COc1cc2c(cc1O)CCNC21CSC2c3c(OC(C)=O)c(C)c4c(c3C(COC1=O)N1C(O)C3Cc5cc(C)c(OC)c(O)c5C(C21)N3C)OCO4 . Its measured viability, T/C is 9.94

====

# Tested on: G-401 tumor spheroids, viability % test/control
# Assay notes: Anticancer human tumor G-401 cell line growth inhibition;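 further: spheroids exposed to compound for 7 days; 100% = DMSO vehicle-treated spheroids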
# Run parameters: second compound 0.0949 µM; first compound 1 µM; active compounds read low; spheroids with HUVEC and MSC
Field 'label' (enum: 1 / -1). Set to 1 when viability, T/C is strictly under 7%; else -1.

CC(C)n1c(=O)n(C)c2cnc3cc(F)c(-c4ccc(OCCCN5CCCCC5)nc4)cc3c21 + CC[C@@]1(O)C(=O)OCc2c1cc1n(c2=O)Cc2cc3c(CN(C)C)c(O)ccc3nc2-1
-1
[2H]c1nc(C)nc([2H])c1-c1cc(NC[C@@H](C)c2cccc3c(C(=O)NC)ccnc23)ncn1 + CC[C@@]1(O)C(=O)OCc2c1cc1n(c2=O)Cc2cc3c(CN(C)C)c(O)ccc3nc2-1
-1
COc1ccc([C@@H](O)c2cc(-c3ncnc4cc(N5CCOCC5)ccc34)c(F)cc2Cl)nn1 + CC[C@@]1(O)C(=O)OCc2c1cc1n(c2=O)Cc2cc3c(CN(C)C)c(O)ccc3nc2-1
1
CC1COCCN1c1cc(-c2ccnn2C)c2ccnc(-c3ccn[nH]3)c2n1 (stereo unspecified) + CC[C@@]1(O)C(=O)OCc2c1cc1n(c2=O)Cc2cc3c(CN(C)C)c(O)ccc3nc2-1
-1

Query compound follows.
**Query** Given the entry Cc1cc(C)c(CNC(=O)c2cc(-c3ccc(CN4CCOCC4)cc3)cc3c2cnn3C2CCCC2)c(=O)[nH]1 + CC[C@@]1(O)C(=O)OCc2c1cc1n(c2=O)Cc2cc3c(CN(C)C)c(O)ccc3nc2-1 , would its reported viability, T/C be below 7%?
**Result** 1

====

# Tested on: G-401 tumor spheroids, viability % test/control
# Assay notes: Anticancer human tumor G-401 cell line growth inhibition; active means viability on the fitted dose curve at most 10% of control; inactive means the rest;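 further: spheroids exposed to compound for 7 days; 100% = DMSO vehicle-treated spheroids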
# Run parameters: second compound 0.03 µM; first compound 0.0949 µM; spheroids with HUVEC and MSC
Pick one: 1 (active), -1 (inactive)

Example results:
O=C(c1cc(Cc2n[nH]c(=O)c3ccccc23)ccc1F)N1CCN(C(=O)C2CC2)CC1 + CC[C@@]1(O)C(=O)OCc2c1cc1n(c2=O)Cc2cc3c(CN(C)C)c(O)ccc3nc2-1
1
Cn1ncnc1[C@H]1c2n[nH]c(=O)c3cc(F)cc(c23)N[C@@H]1c1ccc(F)cc1 + CC[C@@]1(O)C(=O)OCc2c1cc1n(c2=O)Cc2cc3c(CN(C)C)c(O)ccc3nc2-1
1
Cc1sc2c(c1C)C(c1ccc(Cl)cc1)=NC(CC(=O)Nc1ccc(O)cc1)c1nnc(C)n1-2 (centres undefined) + CC[C@@]1(O)C(=O)OCc2c1cc1n(c2=O)Cc2cc3c(CN(C)C)c(O)ccc3nc2-1
1

**Query** What was the test verdict on CNCc1ccc(-c2cc(-c3nc(-c4ccc(S(=O)(=O)C(C)C)cc4)cnc3N)on2)cc1 + CC[C@@]1(O)C(=O)OCc2c1cc1n(c2=O)Cc2cc3c(CN(C)C)c(O)ccc3nc2-1 ?
**Result** -1

====

# Test system: G-401 tumor spheroids, viability % test/control
# Assay notes: Anticancer human tumor G-401 cell line growth inhibition;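 further: spheroids exposed to compound for 7 days; 100% = DMSO vehicle-treated spheroids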
# Run parameters: second compound 10 µM; first compound 0.0949 µM; active compounds read low; spheroids with HUVEC and MSC
Reported viability, T/C values follow for various compounds

Consider CNCc1ccc(-c2cc(-c3nc(-c4ccc(S(=O)(=O)C(C)C)cc4)cnc3N)on2)cc1 + Cn1nnc2c(C(N)=O)ncn2c1=O . Its measured viability, T/C is 100%

Consider Cc1sc2c(c1C)C(c1ccc(Cl)cc1)=NC(CC(=O)Nc1ccc(O)cc1)c1nnc(C)n1-2 (centres undefined) + Cn1nnc2c(C(N)=O)ncn2c1=O . Its measured viability, T/C is 63.5%

Consider O=C(c1cc(Cc2n[nH]c(=O)c3ccccc23)ccc1F)N1CCN(C(=O)C2CC2)CC1 + Cn1nnc2c(C(N)=O)ncn2c1=O . Its measured viability, T/C is 91.2%

Consider Cn1ncnc1[C@H]1c2n[nH]c(=O)c3cc(F)cc(c23)N[C@@H]1c1ccc(F)cc1 + Cn1nnc2c(C(N)=O)ncn2c1=O . Its measured viability, T/C is 32.4%

====

Reported viability, T/C values follow for various compounds
# Test system: G-401 tumor spheroids, viability % test/control
# Assay notes: Anticancer human tumor G-401 cell line growth inhibition;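 further: spheroids exposed to compound for 7 days; 100% = DMSO vehicle-treated spheroids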
# Run parameters: second compound 0.3 µM; first compound 1 µM; active compounds read low; spheroids with HUVEC and MSC
The reply should be a number in %, with the unit left off.

Known results for compounds:
CC(C)n1c(=O)n(C)c2cnc3cc(F)c(-c4ccc(OCCCN5CCCCC5)nc4)cc3c21 + CC[C@@]1(O)C(=O)OCc2c1cc1n(c2=O)Cc2cc3c(CN(C)C)c(O)ccc3nc2-1
6.45
CC1COCCN1c1cc(-c2ccnn2C)c2ccnc(-c3ccn[nH]3)c2n1 (stereo unspecified) + CC[C@@]1(O)C(=O)OCc2c1cc1n(c2=O)Cc2cc3c(CN(C)C)c(O)ccc3nc2-1
4.45
[2H]c1nc(C)nc([2H])c1-c1cc(NC[C@@H](C)c2cccc3c(C(=O)NC)ccnc23)ncn1 + CC[C@@]1(O)C(=O)OCc2c1cc1n(c2=O)Cc2cc3c(CN(C)C)c(O)ccc3nc2-1
5
COc1cc(C)[nH]c(=O)c1CN1CCc2c(Cl)cc(C(OC)C3COC3)c(Cl)c2C1=O (stereo unspecified) + CC[C@@]1(O)C(=O)OCc2c1cc1n(c2=O)Cc2cc3c(CN(C)C)c(O)ccc3nc2-1
5.13
Cc1cc(C)c(CNC(=O)c2cc(-c3ccc(CN4CCOCC4)cc3)cc3c2cnn3C2CCCC2)c(=O)[nH]1 + CC[C@@]1(O)C(=O)OCc2c1cc1n(c2=O)Cc2cc3c(CN(C)C)c(O)ccc3nc2-1
4.83

Please find the next compound below.
Consider COc1ccc([C@@H](O)c2cc(-c3ncnc4cc(N5CCOCC5)ccc34)c(F)cc2Cl)nn1 + CC[C@@]1(O)C(=O)OCc2c1cc1n(c2=O)Cc2cc3c(CN(C)C)c(O)ccc3nc2-1 . Its measured viability, T/C is 2.59

====

# System: G-401 tumor spheroids, viability % test/control
# Assay notes: Anticancer human tumor G-401 cell line growth inhibition;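 further: spheroids exposed to compound for 7 days; 100% = DMSO vehicle-treated spheroids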
# Run parameters: second compound 0.003 µM; first compound 0.0949 µM; active compounds read low; spheroids with HUVEC and MSC
Reported viability, T/C values follow for various compounds
The reply should be a number in %, with the unit left off.

Entry Cc1sc2c(c1C)C(c1ccc(Cl)cc1)=NC(CC(=O)Nc1ccc(O)cc1)c1nnc(C)n1-2 (stereo not drawn) + COc1cc2c(cc1O)CCNC21CSC2c3c(OC(C)=O)c(C)c4c(c3C(COC1=O)N1C(O)C3Cc5cc(C)c(OC)c(O)c5C(C21)N3C)OCO4 ; assay system G-401 tumor spheroids, viability % test/control; viability, T/C recorded at 0.12

Entry O=C(c1cc(Cc2n[nH]c(=O)c3ccccc23)ccc1F)N1CCN(C(=O)C2CC2)CC1 + COc1cc2c(cc1O)CCNC21CSC2c3c(OC(C)=O)c(C)c4c(c3C(COC1=O)N1C(O)C3Cc5cc(C)c(OC)c(O)c5C(C21)N3C)OCO4 ; assay system G-401 tumor spheroids, viability % test/control; viability, T/C recorded at 0.13

Entry O=C(c1cc(Cc2n[nH]c(=O)c3ccccc23)ccc1F)N1CCN(C(=O)C2CC2)CC1 + CC[C@@]1(O)C(=O)OCc2c1cc1n(c2=O)Cc2cc3c(CN(C)C)c(O)ccc3nc2-1 ; assay system G-401 tumor spheroids, viability % test/control; viability, T/C recorded at 49.4

Entry Cn1ncnc1[C@H]1c2n[nH]c(=O)c3cc(F)cc(c23)N[C@@H]1c1ccc(F)cc1 + COc1cc2c(cc1O)CCNC21CSC2c3c(OC(C)=O)c(C)c4c(c3C(COC1=O)N1C(O)C3Cc5cc(C)c(OC)c(O)c5C(C21)N3C)OCO4 ; assay system G-401 tumor spheroids, viability % test/control; viability, T/C recorded at 0.13

Entry Cc1sc2c(c1C)C(c1ccc(Cl)cc1)=NC(CC(=O)Nc1ccc(O)cc1)c1nnc(C)n1-2 (stereo not drawn) + CC[C@@]1(O)C(=O)OCc2c1cc1n(c2=O)Cc2cc3c(CN(C)C)c(O)ccc3nc2-1 ; assay system G-401 tumor spheroids, viability % test/control; viability, T/C recorded at 38.5

Entry CNCc1ccc(-c2cc(-c3nc(-c4ccc(S(=O)(=O)C(C)C)cc4)cnc3N)on2)cc1 + COc1cc2c(cc1O)CCNC21CSC2c3c(OC(C)=O)c(C)c4c(c3C(COC1=O)N1C(O)C3Cc5cc(C)c(OC)c(O)c5C(C21)N3C)OCO4 ; assay system G-401 tumor spheroids, viability % test/control; viability, T/C recorded at 0.22

Entry Cn1ncnc1[C@H]1c2n[nH]c(=O)c3cc(F)cc(c23)N[C@@H]1c1ccc(F)cc1 + CC[C@@]1(O)C(=O)OCc2c1cc1n(c2=O)Cc2cc3c(CN(C)C)c(O)ccc3nc2-1 ; assay system G-401 tumor spheroids, viability % test/control; viability, T/C recorded at 22.9

Entry CNCc1ccc(-c2cc(-c3nc(-c4ccc(S(=O)(=O)C(C)C)cc4)cnc3N)on2)cc1 + CC[C@@]1(O)C(=O)OCc2c1cc1n(c2=O)Cc2cc3c(CN(C)C)c(O)ccc3nc2-1 ; assay system G-401 tumor spheroids, viability % test/control; viability, T/C recorded at 81.7
